Test system: Wnt activity (Sp5-Luc reporter, SW480 colon carcinoma cells)
ASSAY TEXT: Screening assay for Wnt activity: Sp5-Luc reporter gene assay in SW480 cells
Assay type: cell-based
RECORDED CONDITIONS: Homo sapiens, overnight incubation, 10-point dose-response from 10 μM
Protocol: The screening assay for Wnt activity is described as follows. […] SW480 colon carcinoma cells were transduced with a lentiviral vector expressing luciferase with a human Sp5 promoter consisting of a sequence of eight TCF/LEF binding sites. […] Following incubation, 20 μl of BrightGlo luminescence reagent (Promega) was added to each well of the 384-well assay plates. The plates were placed on an orbital shaker for 2 min and then luminescence was quantified using the Envision (Perkin Elmer) plate reader. […]
Listing of entries alongside the reported pEC50.
Conceptually, pEC50 converts a concentration in mol/L into minus its log10.

// below: answered compounds
Cc1ccc(-c2ccnc3[nH]c(-c4n[nH]c5ccc(C6=CCNCC6)nc45)nc23)s1 = 5.50
CC(C)(C)CC(=O)Nc1cncc(-c2ccc3[nH]nc(-c4nc5c(-c6ccccc6F)ccnc5[nH]4)c3n2)c1 = 5.70
Fc1ccc(-c2ccnc3[nH]c(-c4n[nH]c5ccc(-c6cncc(CN7CCCC7)c6)nc45)nc23)cc1 = 5.43

In: Fill in the blank: the reported pEC50 of c1ccc(CNCc2cncc(-c3ccc4[nH]nc(-c5nc6c(-c7cccnc7)ccnc6[nH]5)c4n3)c2)cc1 is ____.
Out: 5.31

* * *

System: primary human fibroblasts derived from IPF patients (LL29 cells), α-smooth muscle actin (αSMA)
ASSAY TEXT: Inhibition of the fibrotic process: TGF-β1-treated primary human fibroblasts from IPF patients, αSMA staining
Assay type: cell-based
RECORDED CONDITIONS: Fibroblast, 96 h, LL29 fibroblasts from IPF patients, TGF-β1 20 ng/mL, 4 days, inhibition of fibrotic process
Excerpt: Representative compounds were screened using primary human fibroblasts (derived from IPF patients) treated with TGF-β1 to determine their ability to inhibit the fibrotic process. […]
Listing of recorded EC50 by entry.

Some compounds with recorded EC50:
COc1cccc(-c2ccnc3[nH]c(-c4n[nH]c5ccc(-c6cncc(NC(=O)Cc7ccccc7)c6)nc45)nc23)c1 = > 10 µM
CN(C)CCOc1cncc(-c2ccc3[nH]nc(-c4nc5c(-c6cccc(F)c6)ccnc5[nH]4)c3n2)c1 = 2.61 µM
Oc1cncc(-c2ccc3[nH]nc(-c4nc5c(N6CCCCC6)ccnc5[nH]4)c3n2)c1 = 2.44 µM

In: Given the compound Cc1ccncc1-c1ccc2[nH]nc(-c3nc4c(-c5ccsc5)ccnc4[nH]3)c2n1 , what is its reported EC50?
Out: 2.05 µM

* * *

System: Wnt activity (Sp5-Luc reporter, SW480 colon carcinoma cells)
ASSAY TEXT: Screening assay for Wnt activity: Sp5-Luc reporter gene assay in SW480 cells
Type: cell-based
RECORDED CONDITIONS: Homo sapiens, overnight incubation, 10-point dose-response from 10 μM
# key: entry, value: EC50
Give the number; µM is assumed, so skip it.

In: Which EC50 reading was recorded for the compound CN(C)CCNc1cc(F)cc(-c2ccnc3[nH]c(-c4n[nH]c5ccc(-c6cncc(CNCC7CCCC7)c6)nc45)nc23)c1 [Compound 473] ?
Out: 3.64

In: Requested field: EC50. Item: O=C(Nc1cncc(-c2ccc3[nH]nc(-c4nc5c(N6CCCCC6)ccnc5[nH]4)c3n2)c1)C1CC1 [Compound 188]
Out: 4

In: Any idea what EC50 was measured for Cc1ccc(-c2ccnc3[nH]c(-c4n[nH]c5ccc(-c6cncc(NC(=O)C(C)C)c6)nc45)nc23)s1 [Compound 401] ?
Out: 0.565

In: I would be grateful if you could share the reported EC50 for Cc1ncc(-c2ccc3[nH]nc(-c4nc5c(-c6cc(F)cc(NCCN(C)C)c6)ccnc5[nH]4)c3n2)n1C [Compound 781] .
Out: 0.62

In: Which EC50 reading was recorded for the compound COc1cccc(-c2ccnc3[nH]c(-c4n[nH]c5ccc(-c6cccnc6)nc45)nc23)c1 [Compound 994] ?
Out: 1.87

In: Need EC50 of NC1CN(c2cncc(-c3ccc4[nH]nc(-c5nc6c(-c7cccc(F)c7)ccnc6[nH]5)c4n3)n2)C1 [Compound 510] , thanks.
Out: 3.71

In: So what's the measured EC50 for this one? O=C(Nc1cncc(-c2ccc3[nH]nc(-c4nc5c(-c6ccsc6)ccnc5[nH]4)c3n2)c1)c1ccccc1 [Compound 291]
Out: 0.527

In: Could you share which EC50 value was measured for CC(C)(C)C(=O)Nc1cncc(-c2ccc3[nH]nc(-c4nc5c(-c6ccc(Cl)s6)ccnc5[nH]4)c3n2)c1 [Compound 1043] ?
Out: 0.644

In: Which value of EC50 has been reported for c1csc(-c2ccnc3[nH]c(-c4n[nH]c5ccc(-c6ccncc6)nc45)nc23)c1 [Compound 354] in the records?
Out: 0.731

In: Form field: reported EC50 of CN(C)Cc1cncc(-c2ccc3[nH]nc(-c4nc5c(-c6cccs6)ccnc5[nH]4)c3n2)c1 [Compound 349]
Out: 3.96

In: Quick check: EC50 of COc1cccc(-c2ccnc3[nH]c(-c4n[nH]c5ccc(-c6cncc(NC(=O)CC(C)(C)C)c6)nc45)nc23)c1 [Compound 1006] ?
Out: 1.55

In: Looking for the measured EC50 of CC(C)CC(=O)Nc1cncc(-c2ccc3[nH]nc(-c4nc5c(-c6ccc(Cl)s6)ccnc5[nH]4)c3n2)c1 [Compound 1037] , can you help?
Out: 1.49

In: Name the reported EC50 value associated with the compound Fc1cccc(-c2ccnc3[nH]c(-c4n[nH]c5ccc(-c6cnccn6)nc45)nc23)c1 [Compound 520]
Out: 3.62

In: Data request, read-out EC50, for CN1CCN(c2ccnc3[nH]c(-c4n[nH]c5ccc(-c6cncc(OCc7ccccc7)c6)nc45)nc23)CC1 [Compound 646]
Out: 1.81

In: May I ask what EC50 has been recorded for Fc1cccc(-c2ccnc3[nH]c(-c4n[nH]c5ccc(-c6cncc(OCCN7CCCC7)c6)nc45)nc23)c1 [Compound 514] ?
Out: 4.11

In: // returns reported EC50 for input CN(C)c1cncc(-c2ccc3[nH]nc(-c4nc5c(-c6cccc(F)c6)ccnc5[nH]4)c3n2)c1 [Compound 7]
Out: 0.929

* * *

Measured EC50, listed per entry for reference.
Tested on: Wnt activity (Sp5-Luc reporter, SW480 colon carcinoma cells)
ASSAY TEXT: Screening assay for Wnt activity: Sp5-Luc reporter gene assay in SW480 cells
Assay type: cell-based
RECORDED CONDITIONS: Homo sapiens, overnight incubation, 10-point dose-response from 10 μM

Example cases with answers are listed next.
Oc1cncc(-c2ccc3[nH]nc(-c4nc5c(-c6cccnc6)ccnc5[nH]4)c3n2)c1 [Compound 565] = > 10 µM
Cc1cn(-c2ccnc3[nH]c(-c4n[nH]c5ccc(-c6cncc(OCCN(C)C)c6)nc45)nc23)cn1 [Compound 627] = > 10 µM
CN1CCN(c2ccnc3[nH]c(-c4n[nH]c5ccc(-c6cncc(NC(=O)C7CCCC7)c6)nc45)nc23)CC1 [Compound 246] = > 10 µM
Cn1cc(-c2ccc3[nH]nc(-c4nc5c(-c6ccc(F)cc6)ccnc5[nH]4)c3n2)c(CO)n1 [Compound 1129] = > 10 µM
CC(C)CC(=O)Nc1cncc(-c2ccc3[nH]nc(-c4nc5c(-c6cccc(F)c6)ccnc5[nH]4)c3n2)c1 [Compound 2] = 0.495 µM

In: Which EC50 reading was recorded for the molecule c1cnc2[nH]c(-c3n[nH]c4ccc(-c5cn[nH]c5)nc34)nc2c1 [Compound 651] ?
Out: > 10 µM

In: If you can, please state the reported EC50 value of Clc1ccc(-c2ccnc3[nH]c(-c4n[nH]c5ccc(-c6cncc(CN7CCCC7)c6)nc45)nc23)s1 [Compound 1049] .
Out: 7.7 µM

In: Value lookup for EC50; key = CN(C)CCNc1cc(F)cc(-c2ccnc3[nH]c(-c4n[nH]c5ccc(-c6cnccn6)nc45)nc23)c1 [Compound 792]
Out: 3.93 µM

In: What value of EC50 has been recorded for this entry: COc1cncc(-c2ccc3[nH]nc(-c4nc5c(N6CCCCC6)ccnc5[nH]4)c3n2)c1 [Compound 612]
Out: > 10 µM

* * *

Test system: IL-6 (THP-1 cells)
ASSAY TEXT: Inhibition of IL-6 in LPS-stimulated THP-1 monocytes (HTRF)
Assay type: cell-based
RECORDED CONDITIONS: Homo sapiens, LPS 500 ng/mL, IL-6 by HTRF
pEC50: −log10 of the molar value.
Measured pEC50 of individual entries

Record excerpt, results attached:
c1cc(-c2ccoc2)c2nc(-c3n[nH]c4ccc(-c5cncc(OCCN6CCCC6)c5)nc34)[nH]c2n1 = < 5.00
Cn1cc(-c2ccc3[nH]nc(-c4nc5c(-c6ccc(F)cc6)ccnc5[nH]4)c3n2)c(CO)n1 = < 5.00
CCNCc1cncc(-c2ccc3[nH]nc(-c4nc5c(-c6ccccn6)ccnc5[nH]4)c3n2)c1 = < 5.00
FC1(F)CCN(Cc2cncc(-c3ccc4[nH]nc(-c5nc6c(N7CCCCC7)ccnc6[nH]5)c4n3)c2)C1 = 5.27
Cc1ccc(-c2ccnc3[nH]c(-c4n[nH]c5ccc(C6=CCNCC6)nc45)nc23)s1 = 6.25

In: Look at this molecule and give its reported pEC50. CN1CCN(c2ccnc3[nH]c(-c4n[nH]c5ccc(-c6cncc(OCc7ccccc7)c6)nc45)nc23)CC1
Out: 5.83

In: Param item = CN1CCN(c2ccnc3[nH]c(-c4n[nH]c5ccc(-c6cncc(OC7CCCCC7)c6)nc45)nc23)CC1 ; retrieve measured pEC50.
Out: < 5.00

In: Which pEC50 value is on record for CN(C)CCOc1cncc(-c2ccc3[nH]nc(-c4nc5c(-c6cccc(F)c6)ccnc5[nH]4)c3n2)c1 ?
Out: 5.26

In: Need pEC50, item CC(C)(C)C(=O)Nc1cncc(-c2ccc3[nH]nc(-c4nc5c(-c6ccc(F)cc6)ccnc5[nH]4)c3n2)c1
Out: < 5.00

In: Given the entry c1ccc(CNCc2cncc(-c3ccc4[nH]nc(-c5nc6c(-c7cccnc7)ccnc6[nH]5)c4n3)c2)cc1 , report its measured pEC50.
Out: 6.88

In: What measured pEC50 goes with CC(C)CC(=O)Nc1cncc(-c2ccc3[nH]nc(-c4nc5c(-c6cccc(F)c6)ccnc5[nH]4)c3n2)c1 ?
Out: 6.53

In: Name the recorded pEC50 for O=C(Nc1cncc(-c2ccc3[nH]nc(-c4nc5c(-c6ccsc6)ccnc5[nH]4)c3n2)c1)c1ccccc1 .
Out: < 5.00

In: GET /values?readout=pEC50&item= CC(C)Nc1cncc(-c2ccc3[nH]nc(-c4nc5c(-c6cc(F)cc(NCCN(C)C)c6)ccnc5[nH]4)c3n2)c1
Out: 5.74

In: Consider the molecule CS(=O)(=O)NCc1cc(F)cc(-c2ccnc3[nH]c(-c4n[nH]c5ccc(-c6cncc(NC(=O)c7ccccc7)c6)nc45)nc23)c1 and give its measured pEC50.
Out: < 5.00

In: Form field: reported pEC50 of Oc1cncc(-c2ccc3[nH]nc(-c4nc5cccnc5[nH]4)c3n2)c1
Out: < 5.00

The measurements presented in this section are drawn from patent US10329309B2.
